All values here come from a melting point compilation (Tetko et al.; mined from patent text by program, amines drawn as free bases though some values may be those of a salt).

valueType: melting point

In the examples that follow, each entry is paired with its recorded melting point.
1. CC(=O)N(C)S(=O)(=O)c1cc(-n2c(=O)cc(C(F)(F)F)n(C)c2=O)ccc1Cl 193 to 195 °C
2. CCC(CC)Oc1cc(C)nc(Nc2c(C)cc(C)cc2C)c1N 73 to 75 °C
3. CNC(=O)ON=C1SCCN(C(=O)NC)C1=O 187 to 189 °C

What value of melting point has been reported for the following molecule? O=C(O)c1ccc(Br)cc1Cc1ccccc1
137 °C

====

Each entry below lists one item and its recorded melting point value.

compound	valueType	obsValue
CN(c1cccc2cc(C3=NCC(C)(CCOS(C)(=O)=O)S3)[nH]c12)S(=O)(=O)c1cccs1 (centres undefined)	melting point	149 to 150 °C
COc1nc(C)c(C)cc1NC(=S)N1CCN(c2cc(C)cc(C)c2)CC1	melting point	192 to 193 °C
N#Cc1ccc(-c2cn(-c3ccc(C#N)cc3)cn2)cc1	melting point	258 to 263 °C
O=C(Nc1cc(Cl)c(O)c(Cl)c1)c1ccc(F)cc1O	melting point	223 to 224 °C
CCCCOc1ccc(Cc2nn(-c3ccccc3Cl)c(=S)o2)cc1	melting point	69 °C

Give the measured melting point of COC(=O)C=C1NCC(C)OC1=O (centres undefined) .
98 to 101 °C

Look up melting point: CC(C)(C)OC(=O)NCCCCCn1c(=O)c2cccc3ncc(c1=O)n32
82 to 83 °C

Return reported melting point; argument: CC(=O)N1CCC(F)(Cc2c3c(nn2C)c(N)nc2ccccc23)CC1
241 to 243 °C

// returns reported melting point for input CC(C)C1COCc2nc3c(N)nc4c(c3n21)CCCC4 (centres undefined)
158 to 160 °C
